molecular target: DAT (Rattus norvegicus, UniProt P23977); construct: rat striatum was the source for DAT, and cerebral cortex for SERT and NET; from tissue; P2 synaptosomal fraction for uptake; experiment: Inhibition of [3H]DA uptake by DAT into rat striatal synaptosomes; assay type: biochemical; settings: Table 4; rat brain; read-out: DAT uptake, IC50 [3H]DA
Sequence (P23977 whole entry): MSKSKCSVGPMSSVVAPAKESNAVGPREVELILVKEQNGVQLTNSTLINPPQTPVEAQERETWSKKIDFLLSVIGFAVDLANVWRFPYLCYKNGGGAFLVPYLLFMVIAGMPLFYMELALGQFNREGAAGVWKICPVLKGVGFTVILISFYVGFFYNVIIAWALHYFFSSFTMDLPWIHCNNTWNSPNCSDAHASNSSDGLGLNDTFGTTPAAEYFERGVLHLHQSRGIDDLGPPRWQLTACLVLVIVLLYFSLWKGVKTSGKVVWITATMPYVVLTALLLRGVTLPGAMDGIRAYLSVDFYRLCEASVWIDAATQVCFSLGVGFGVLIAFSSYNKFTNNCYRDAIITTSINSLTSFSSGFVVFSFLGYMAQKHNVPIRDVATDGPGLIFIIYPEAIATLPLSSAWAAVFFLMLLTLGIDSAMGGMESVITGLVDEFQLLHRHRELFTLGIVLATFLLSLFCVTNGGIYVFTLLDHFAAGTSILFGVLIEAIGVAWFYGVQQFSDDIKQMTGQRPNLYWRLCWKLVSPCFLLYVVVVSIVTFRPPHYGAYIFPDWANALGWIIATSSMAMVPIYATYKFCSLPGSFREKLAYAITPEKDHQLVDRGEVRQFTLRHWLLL
pIC50: −log10 of the molar value.
# binarize pIC50: threshold 6 inclusive, high side Yes, low side No

compound	label.class
O[C@@H]1C[C@@H](C(c2ccccc2)c2ccccc2)OC[C@H]1NCc1ccc2[nH]ccc2c1 [(−)-32b]	Yes
O[C@H]1C[C@H](C(c2ccccc2)c2ccccc2)OC[C@@H]1NCCc1ccc(F)cc1 [(+)-29c]	Yes
Oc1ccc(CN[C@H]2CC[C@@H](C(c3ccccc3)c3ccccc3)OC2)cc1 [(−)-37a]	Yes
COc1cc(CN[C@@H]2CO[C@H](C(c3ccccc3)c3ccccc3)C[C@H]2O)cc(OC)c1 [(−)-29f]	Yes
O[C@@H]1C[C@@H](C(c2ccccc2)c2ccccc2)OC[C@H]1NCCc1ccc(F)cc1 [(−)-29c]	Yes
O[C@H]1C[C@H](C(c2ccccc2)c2ccccc2)OC[C@@H]1NCc1ccccc1 [(+)-29d]	Yes
Oc1ccc(CN[C@@H]2CC[C@H](C(c3ccccc3)c3ccccc3)OC2)cc1 [(+)-37a]	Yes
O[C@@H]1C[C@@H](C(c2ccccc2)c2ccccc2)OC[C@H]1NCc1ccccc1 [(−)-29d]	Yes
O[C@H]1C[C@H](C(c2ccccc2)c2ccccc2)OC[C@@H]1NCc1ccc2[nH]ccc2c1 [(+)-32b]	Yes
COc1ccc(CN[C@H]2C[C@H](C(c3ccccc3)c3ccccc3)OC[C@H]2O)cc1 [(+)-29g]	No
O[C@@H]1CO[C@H](C(c2ccccc2)c2ccccc2)C[C@H]1NCc1ccccc1 [(−)-29h]	No

---

molecular target: SERT (Rattus norvegicus, UniProt P31652); construct: rat striatum was the source for DAT, and cerebral cortex for SERT and NET; from tissue; host or cells: rat cerebral cortex; assay: SERT uptake inhibition, [3H]5-HT; assay type: biochemical
Sequence (P31652 whole entry): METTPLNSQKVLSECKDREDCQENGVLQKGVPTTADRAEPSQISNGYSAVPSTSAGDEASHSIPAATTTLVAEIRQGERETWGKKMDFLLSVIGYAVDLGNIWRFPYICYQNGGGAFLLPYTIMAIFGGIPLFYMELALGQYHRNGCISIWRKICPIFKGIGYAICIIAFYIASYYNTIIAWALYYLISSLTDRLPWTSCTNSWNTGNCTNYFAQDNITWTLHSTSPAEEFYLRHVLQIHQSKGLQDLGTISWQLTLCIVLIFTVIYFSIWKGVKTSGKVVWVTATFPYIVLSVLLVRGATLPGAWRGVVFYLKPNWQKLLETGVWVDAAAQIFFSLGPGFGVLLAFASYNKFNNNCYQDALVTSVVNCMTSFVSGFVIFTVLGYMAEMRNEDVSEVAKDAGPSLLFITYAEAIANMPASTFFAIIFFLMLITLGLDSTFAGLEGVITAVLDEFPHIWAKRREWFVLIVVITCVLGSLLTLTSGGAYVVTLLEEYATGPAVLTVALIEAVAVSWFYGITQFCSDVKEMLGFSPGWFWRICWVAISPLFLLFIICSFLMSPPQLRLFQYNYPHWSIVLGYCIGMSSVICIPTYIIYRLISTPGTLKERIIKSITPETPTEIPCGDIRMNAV
pIC50: −log10 of the molar value.
Quick reference: pIC50 of the listed items.
reported.property: pIC50

compound	readout.number
O[C@H]1C[C@H](C(c2ccccc2)c2ccccc2)OC[C@@H]1NCc1ccc(F)cc1 [(+)-29b]	5.25
O[C@@H]1C[C@@H](C(c2ccccc2)c2ccccc2)OC[C@H]1NCc1ccc(F)cc1 [(−)-29b]	6.17

---

target: DAT (Rattus norvegicus, UniProt P23977); construct: rat striatum was the source for DAT, and cerebral cortex for SERT and NET; from tissue; P2 synaptosomal fraction for uptake; experiment: Inhibition of [3H]DA uptake by DAT into rat striatal synaptosomes; assay type: biochemical
pIC50: −log10 of the molar value.
reported.property: pIC50

molecule	reported.property	readout.number
O[C@@H]1C[C@@H](C(c2ccccc2)c2ccccc2)OC[C@H]1NCc1ccc(F)cc1 [(−)-29b]	pIC50	6.77
O[C@H]1C[C@H](C(c2ccccc2)c2ccccc2)OC[C@@H]1NCc1ccc(F)cc1 [(+)-29b]	pIC50	6.36

---

target: DAT (Rattus norvegicus, UniProt P23977); construct: rat striatum was the source for DAT, and cerebral cortex for SERT and NET; from tissue; P2 synaptosomal fraction for uptake; assay: Inhibition of [3H]DA uptake by DAT into rat striatal synaptosomes; type: biochemical; conditions: Table 4; rat brain; read-out: DAT uptake, IC50 [3H]DA
pIC50: −log10 of the molar value.

molecule	pIC50
COc1ccc(CN[C@@H]2CO[C@H](C(c3ccccc3)c3ccccc3)C[C@H]2O)c(OC)c1 [(−)-29e]	6.15
COc1ccc(CN[C@@H]2C[C@@H](C(c3ccccc3)c3ccccc3)OC[C@@H]2O)cc1 [(−)-29g]	6.09
O[C@@H]1CO[C@@H](C(c2ccccc2)c2ccccc2)C[C@@H]1NCc1ccccc1 [(+)-29h]	6.02
